biological target: T1, human PD-1 expressed on cells (CHO TREX human PD1 cell line, full-length human PD-1 sequence) (human, UniProt Q15116 21-288); assay: worded summary of the screens
T1 construct: Also used for human PD-1 on Jurkat reporter cells, on PathHunter cells and on PHA-stimulated human CD4+ T cells; also called CHO human PD1 cells; CHO human PD-1 cells
T1 sequence (Q15116 21-288): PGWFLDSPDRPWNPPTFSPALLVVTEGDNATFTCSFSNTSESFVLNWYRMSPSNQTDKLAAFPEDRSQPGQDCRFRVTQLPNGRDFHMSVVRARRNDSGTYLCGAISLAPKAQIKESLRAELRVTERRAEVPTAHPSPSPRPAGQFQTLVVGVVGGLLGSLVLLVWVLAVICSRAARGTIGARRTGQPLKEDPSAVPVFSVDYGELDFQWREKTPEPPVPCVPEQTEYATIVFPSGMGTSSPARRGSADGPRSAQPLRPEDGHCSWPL
Measurement Kind: binding result

// worked examples, binding result included
The reported value for 1.27a (VHH) VHH: EVQLVESGGGLVQPGRSLRLSCAASGFTFDDYAMHWVRQAPGKDLEWVSGISWNGGSRGYAASVKGRFTISRDNAKNSLYLQMNSLRAEDTALYYCVREKGPGLTGSTADYYGLDAWGQGTMVTVSS in terms of binding result is binds

The reported value for 1.70a (VHH) VHH: EVQLVESGGGVVRPGGSLRLSCAASGFTFDDYAVSWVRQAPGKGLEWVSGITWNGGSTGYADSVKGRFTISRDNAKNSLYLQMNSLRAEDTALYYCVRDKYSYAWSYDGFDIWGQGTMVTVSS in terms of binding result is binds

The reported value for 1.36a (VHH) VHH: EVQLVESGGGLVQPGRSLRLSCAASGFTFDDYAMHWVRQAPGKDLEWVSGISWNAGSMGYADSVKGRFTISRDNAKNSLYLQMNSLRAEDTALYYCVREKGPGLTGSTADYYGLDAWGQGTMVTVSS in terms of binding result is binds

The reported value for 1.78b (VHH) VHH: EVQLVESGGGLVKPGGSLRLSCAASGFTFSDSSMTWIRQAPGKGLEWVSYISSGGGVKFYADSVKGRFTISRDNAKNSLYLQMNSLRAEDTAVYYCAREAPLRLGESPHDAFDISGQGTMVTVSS in terms of binding result is binds

The reported value for 1.74a (VHH) VHH: EVQLVESGGGVVRPGGSLRLSCAASGFTFDDYAMSWVRQAPGKGLEWVSGITWNSGSTGYADSVKDRFTISRDNAKNSLYLQMNSLRAEDTALYYCVRDKYSYAWSYDDFDIWGQGTMVTVSS in terms of binding result is binds

***
The reported value for 1.101a (VHH) VHH: EVQLVESGGGVVRPGGSLRLSCAASGFTFDDYAMSWVRQAPGKGLEWVSGITWRGGSTGYADSVKDRFTISRDNAKNSLYLQMNSLRAEDTALYYCVRDKYSYAWSYDGFDIWGQGTMVTVSS in terms of binding result is binds

The reported value for 1.7a (VHH) VHH: EVQLVESGGGVIQPGRSLRLSCAASGFTFDDYAMHWVRQAPGKGREWVSGISWNGGSMGYAESVKGRFTISRDNAQNSLYLQMNSLRAEDSALYYCVKDKGPGLTGTTADYYGMDVWGQGTTVTVSS in terms of binding result is binds

The reported value for 1.8a (VHH) VHH: EVQLVESGGGLVQPGRSLRLSCAASGFTFDDYAMHWVRQAPGKGLEWVSGISWNSGSMGYADSVKDRFTISRDNAKNSLYLQMNSLRAEDTALYYCVKDKGPGLIGSTADYHGLDVWGQGTTVTVSS in terms of binding result is binds
